Target: T1, human EGFRvIII-hFc protein (human, UniProt P00533 25-645)
T1 construct: extracellular domain; also called immunogen A; hFc-tagged EGFRvIII protein; not shown: human IgG Fc fragment (hFc) of the pCpC vector
Assay: ELISA, EGFRvIII-hFc coated
PARAMETER_MEASURED: pEC50
Remember the convention: pEC50 equals -log10 of concentration in molar.

Humanized antibody h63A10A7-37 (antibody, human IgG1, V domains shown, also called VH-g6/VL-g3) VH: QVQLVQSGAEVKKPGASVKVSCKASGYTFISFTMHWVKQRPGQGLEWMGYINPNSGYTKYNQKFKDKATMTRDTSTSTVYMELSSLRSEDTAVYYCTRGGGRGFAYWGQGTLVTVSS VL: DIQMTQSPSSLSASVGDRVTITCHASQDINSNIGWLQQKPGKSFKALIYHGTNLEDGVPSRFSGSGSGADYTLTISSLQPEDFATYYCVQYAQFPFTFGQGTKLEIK: 9.55
Humanized antibody h63A10A7-38 (antibody, human IgG1, V domains shown, also called VH-g7/VL-g3) VH: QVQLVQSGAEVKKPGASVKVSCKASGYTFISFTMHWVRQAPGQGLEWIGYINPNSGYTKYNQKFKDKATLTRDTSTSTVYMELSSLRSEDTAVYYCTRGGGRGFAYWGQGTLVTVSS VL: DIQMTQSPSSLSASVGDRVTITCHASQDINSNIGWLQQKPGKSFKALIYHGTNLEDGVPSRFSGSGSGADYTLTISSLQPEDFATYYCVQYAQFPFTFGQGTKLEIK: 9.66
Humanized antibody h75G7C6-12 (antibody, human IgG1, V domains shown, also called VH-g1/VL-g3) VH: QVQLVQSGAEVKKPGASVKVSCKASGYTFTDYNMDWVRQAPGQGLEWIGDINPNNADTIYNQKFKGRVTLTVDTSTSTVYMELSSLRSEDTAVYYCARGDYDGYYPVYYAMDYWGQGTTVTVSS VL: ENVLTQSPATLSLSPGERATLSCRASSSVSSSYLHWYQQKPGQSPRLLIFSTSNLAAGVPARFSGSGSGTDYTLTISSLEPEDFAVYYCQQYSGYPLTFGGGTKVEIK: 9.24

Okay, now this binder:
Name the recorded pEC50 for Humanized antibody h63A10A7-20 (antibody, human IgG1, V domains shown, also called VH-g7/VL-g4) VH: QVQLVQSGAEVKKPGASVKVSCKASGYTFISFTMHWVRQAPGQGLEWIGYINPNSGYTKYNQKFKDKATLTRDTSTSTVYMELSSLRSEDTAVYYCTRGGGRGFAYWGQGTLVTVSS VL: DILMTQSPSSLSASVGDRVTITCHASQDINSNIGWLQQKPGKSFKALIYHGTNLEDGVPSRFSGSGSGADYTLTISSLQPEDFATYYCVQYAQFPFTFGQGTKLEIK .
9.74
